Entry source: patent US20100189760A1

Molecular target: neural stem cell surface (cell surface molecule(s) of NSCs, not identified) (rat (adult hippocampus, stated in Example 1))
Experiment: flow cytometry, GFP bacterial clone displaying the peptide on NSCs
measured.attribute: % NSCs with Bacteria (%)

1) LVCNRQNPWVCYI [clone Co-23 peptide] :: 71.1
2) WYCFRENKYVCVM [clone 7C-1 peptide] :: 75.2
3) WLCKGSNKYMCEW [clone 7C-17 peptide] :: 67.8
4) QGCAFVTYWACIF [clone Co-16 peptide] :: 71.9
5) KLCCFDKGYYCMR [clone 7C-9 peptide] :: 71.3
6) WECAEESKFWCVF [clone Co-17 peptide] :: 72.1
7) ESCWYQIMYKCAN [clone 7C-2 peptide] :: 55.2
8) GFVLVWSYTCRCWGK [clone 15-50 peptide] :: 64.9
